# METHOD_SUMMARY: Cytotoxicity assay (MTS, 3 days), LCC6
# Type: cell-based
# CONDITION: human, LCC6 cells
READOUT_LABEL: IC50 at 3 days (µM)
One number for each entry, in µM.

# IC50 at 3 days of "O=c1cc(-c2ccc(OCCOCCNCc3ccccc3)cc2)oc2ccccc12" = 10.3

----------
# TARGET_ENTITY: P-gp (Homo sapiens)
# METHOD_SUMMARY: Reversal of P-gp-mediated MDR in LCC6MDR cells (MTS cell viability, 5 days)
# CONDITION: EC50 for P-gp modulation, range over PTX reversal and DOX accumulation in LCC6MDR
pEC50: −log10 of the molar value.
I'd be grateful if you could share measured pEC50 for these entries.

{"COMPOUND": "O=c1cc(-c2ccc(OCCOCCNCc3ccccc3)cc2)oc2ccccc12 [FM04]", "pEC50": "7.08 to 7.19"}

Sure, the documented pEC50 for O=c1cc(-c2ccc(OCCOCCN(CCOCCOc3ccc(-c4cc(=O)c5ccccc5o4)cc3)Cc3ccccc3)cc2)oc2ccccc12 [FD18] is 6.83 to 6.94

----------
# METHOD_SUMMARY: Pharmacokinetics of PTX and FM04 after oral co-administration
# Type: in vivo, Balb/c mice
# CONDITION: female, Balb/c, mouse, plasma, po, 20 mg/kg, mice, oral; PTX 20 mg/kg + FM04 45 mg/kg
READOUT_LABEL: AUC (ng·h/mL)
Numbers only, in ng·h/mL.

The recorded AUC for entry "CC(=O)O[C@H]1C(=O)[C@@]2(C)[C@H]([C@H](OC(=O)c3ccccc3)[C@]3(O)C[C@H](OC(=O)[C@H](O)[C@@H](NC(=O)c4ccccc4)c4ccccc4)C(C)=C1C3(C)C)[C@]1(OC(C)=O)CO[C@@H]1C[C@@H]2O" equals 9400

----------
# TARGET_ENTITY: P-gp (Homo sapiens, UniProt P08183)
# Sequence (P08183 whole entry): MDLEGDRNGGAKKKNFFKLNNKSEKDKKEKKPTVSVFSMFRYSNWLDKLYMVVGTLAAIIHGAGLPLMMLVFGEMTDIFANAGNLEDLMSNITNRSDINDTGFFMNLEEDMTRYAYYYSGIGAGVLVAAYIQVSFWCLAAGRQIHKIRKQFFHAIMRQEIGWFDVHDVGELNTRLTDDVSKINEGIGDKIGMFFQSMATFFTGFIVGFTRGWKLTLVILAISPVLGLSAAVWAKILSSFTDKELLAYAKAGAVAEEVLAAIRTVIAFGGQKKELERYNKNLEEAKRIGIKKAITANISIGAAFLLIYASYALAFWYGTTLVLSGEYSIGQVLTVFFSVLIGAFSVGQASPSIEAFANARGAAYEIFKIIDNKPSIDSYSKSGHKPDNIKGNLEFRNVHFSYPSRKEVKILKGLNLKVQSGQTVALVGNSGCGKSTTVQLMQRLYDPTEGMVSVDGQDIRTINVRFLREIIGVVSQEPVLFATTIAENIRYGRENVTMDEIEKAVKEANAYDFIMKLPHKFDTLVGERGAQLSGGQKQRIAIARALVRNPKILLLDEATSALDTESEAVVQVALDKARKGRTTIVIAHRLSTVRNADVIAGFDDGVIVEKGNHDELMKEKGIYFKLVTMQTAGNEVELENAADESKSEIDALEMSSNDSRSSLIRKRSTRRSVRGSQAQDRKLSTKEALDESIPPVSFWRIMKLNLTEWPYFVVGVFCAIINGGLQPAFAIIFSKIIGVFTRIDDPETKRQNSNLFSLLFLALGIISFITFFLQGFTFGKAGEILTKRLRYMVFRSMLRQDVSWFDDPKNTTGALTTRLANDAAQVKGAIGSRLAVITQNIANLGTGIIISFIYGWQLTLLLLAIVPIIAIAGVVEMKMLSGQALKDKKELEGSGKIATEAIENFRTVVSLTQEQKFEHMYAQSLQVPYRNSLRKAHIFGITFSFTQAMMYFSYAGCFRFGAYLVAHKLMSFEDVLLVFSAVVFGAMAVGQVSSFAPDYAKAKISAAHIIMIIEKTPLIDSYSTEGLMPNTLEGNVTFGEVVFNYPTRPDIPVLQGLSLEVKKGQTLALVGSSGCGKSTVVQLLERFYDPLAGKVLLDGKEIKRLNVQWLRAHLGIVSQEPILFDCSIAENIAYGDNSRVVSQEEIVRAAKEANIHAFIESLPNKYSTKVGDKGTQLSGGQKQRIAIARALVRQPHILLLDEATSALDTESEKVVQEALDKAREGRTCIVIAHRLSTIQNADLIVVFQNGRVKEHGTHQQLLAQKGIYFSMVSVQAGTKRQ
# METHOD_SUMMARY: Reversal of P-gp-mediated MDR in LCC6MDR cells (MTS cell viability, 5 days)
Label 1 (yes) when RF, LCC6MDR + 1 μM FM04 is strictly below 30; otherwise label 0 (no).

{"COMPOUND_SMILES": "COc1cccc2c1C(=O)c1c(O)c3c(c(O)c1C2=O)C[C@@](O)(C(=O)CO)C[C@@H]3O[C@H]1C[C@H](N)[C@H](O)[C@H](C)O1", "TARGET_ENTITY": "P-gp (Homo sapiens, UniProt P08183)", "CATEGORY": "1 (yes)"}
{"COMPOUND_SMILES": "O=C1c2c(O)ccc(O)c2C(=O)c2c(NCCNCCO)ccc(NCCNCCO)c21", "TARGET_ENTITY": "P-gp (Homo sapiens, UniProt P08183)", "CATEGORY": "1 (yes)"}
{"COMPOUND_SMILES": "CC[C@]1(O)C[C@H]2CN(CCc3c([nH]c4ccccc34)[C@@](C(=O)OC)(c3cc4c(cc3OC)N(C=O)[C@H]3[C@@](O)(C(=O)OC)[C@H](OC(C)=O)[C@]5(CC)C=CCN6CC[C@]43[C@@H]65)C2)C1", "TARGET_ENTITY": "P-gp (Homo sapiens, UniProt P08183)", "CATEGORY": "0 (no)"}

Query block: Determine whether this compound shows RF, LCC6MDR + 1 μM FM04 lower than 30 (ties excluded): "COc1cccc2c1C(=O)c1c(O)c3c(c(O)c1C2=O)C[C@@](O)(C(C)=O)C[C@@H]3O[C@H]1C[C@H](N)[C@H](O)[C@H](C)O1"
Result block: 1 (yes)

Query block: State whether 30 exceeds RF, LCC6MDR + 1 μM FM04 recorded for "CC(=O)O[C@H]1C(=O)[C@@]2(C)[C@H]([C@H](OC(=O)c3ccccc3)[C@]3(O)C[C@H](OC(=O)[C@H](O)[C@@H](NC(=O)c4ccccc4)c4ccccc4)C(C)=C1C3(C)C)[C@]1(OC(C)=O)CO[C@@H]1C[C@@H]2O" .
Result block: 0 (no)

Query block: Check if RF, LCC6MDR + 1 μM FM04 falls below 30 for "CC[C@]1(O)C[C@@H]2CN(CCc3c([nH]c4ccccc34)[C@@](C(=O)OC)(c3cc4c(cc3OC)N(C)[C@H]3[C@@](O)(C(=O)OC)[C@H](OC(C)=O)[C@]5(CC)C=CCN6CC[C@]43[C@@H]65)C2)C1" .
Result block: 0 (no)

----------
# TARGET_ENTITY: P-gp (Homo sapiens)
# METHOD_SUMMARY: Reversal of P-gp-mediated MDR in LCC6MDR cells (MTS cell viability, 5 days)
# CONDITION: EC50 for chemosensitizing LCC6MDR towards vinblastine, vincristine, DOX, daunorubicin and mitoxantrone, range over the five drugs
pEC50: −log10 of the molar value.
READOUT_LABEL: pEC50

Note to self: pEC50 recorded for O=c1cc(-c2ccc(OCCOCCNCc3ccccc3)cc2)oc2ccccc12 [FM04] was 6.82 to 7.21

----------
# METHOD_SUMMARY: In vivo monitoring of FD18 and its metabolites in plasma after I.V. FD18
# Parameters: species or system SD rats
# CONDITION: Sprague-Dawley, rat, iv, after FD18 5 mg/kg I.V.
READOUT_LABEL: AUC(0-t) (ng·h/mL)
Numbers only, in ng·h/mL.

# count of solved cases: 3
{"COMPOUND": "O=c1cc(-c2ccc(OCCOCCNCCOCCOc3ccc(-c4cc(=O)c5ccccc5o4)cc3)cc2)oc2ccccc12 [14a]", "TEST_VALUE": 78.9}
{"COMPOUND": "O=c1cc(-c2ccc(OCCOCCN(CCOCCOc3ccc(-c4cc(=O)c5ccccc5o4)cc3)Cc3ccccc3)cc2)oc2ccccc12", "TEST_VALUE": 682}
{"COMPOUND": "O=c1cc(-c2ccc(OCCOCCO)cc2)oc2ccccc12", "TEST_VALUE": 49.1}

Next compound, AUC(0-t) to be filled in.
// "O=c1cc(-c2ccc(OCCOCCNCc3ccccc3)cc2)oc2ccccc12" : AUC(0-t) value = 44.5

----------
# TARGET_ENTITY: P-gp (Homo sapiens, UniProt P08183)
# METHOD_SUMMARY: Reversal of P-gp-mediated MDR in LCC6MDR cells (MTS cell viability, 5 days)
# CONDITION: EC50 needed for reversing MDR in LCC6MDR cells: Daunorubicin, LCC6MDR
READOUT_LABEL: pEC50
One number for each entry, as −log10 of the molar value.

Observed pEC50, P-gp (Homo sapiens, UniProt P08183), "O=c1cc(-c2ccc(OCCOCCNCc3ccccc3)cc2)oc2ccccc12" : 7.06

----------
# METHOD_SUMMARY: Pharmacokinetics of PTX and FM04 after oral co-administration
# Format: in vivo, Balb/c mice
# CONDITION: female, Balb/c, mouse, plasma, po, mice, oral; FM04 45 mg/kg + PTX 50 mg/kg; read-out: FM04 Cmax
READOUT_LABEL: Cmax (ng/mL)
Numbers only, in ng/mL.

"O=c1cc(-c2ccc(OCCOCCNCc3ccccc3)cc2)oc2ccccc12" yielded Cmax of 754

----------
# TARGET_ENTITY: P-gp (Homo sapiens)
# METHOD_SUMMARY: Reversal of P-gp-mediated MDR in LCC6MDR cells (MTS cell viability, 5 days)
# CONDITION: EC50 needed for reversing MDR in LCC6MDR cells: Mitoxantrone, LCC6MDR
READOUT_LABEL: EC50 (nM)
Answers are plain numbers, in nM.

Quick note, EC50 for O=c1cc(-c2ccc(OCCOCCNCc3ccccc3)cc2)oc2ccccc12 [FM04] landed at 64

----------
# METHOD_SUMMARY: Pharmacokinetics of PTX and FM04 after oral co-administration
# Assay type: in vivo, Balb/c mice
# CONDITION: female, Balb/c, mouse, plasma; mice, oral; PTX 20 mg/kg + FM04 45 mg/kg; read-out: PTX Tmax (converted)
READOUT_LABEL: Tmax (h)
One number for each entry, in h.

Record summary for "CC(=O)O[C@H]1C(=O)[C@@]2(C)[C@H]([C@H](OC(=O)c3ccccc3)[C@]3(O)C[C@H](OC(=O)[C@H](O)[C@@H](NC(=O)c4ccccc4)c4ccccc4)C(C)=C1C3(C)C)[C@]1(OC(C)=O)CO[C@@H]1C[C@@H]2O" : reported Tmax = 2

----------
# METHOD_SUMMARY: Pharmacokinetics of PTX and FM04 after oral co-administration
# Format: in vivo, Balb/c mice
# CONDITION: female, Balb/c, mouse, plasma, po, mice, oral; PTX 70 mg/kg + FM04 45 mg/kg; read-out: PTX Cmax
READOUT_LABEL: Cmax

For this compound ( "CC(=O)O[C@H]1C(=O)[C@@]2(C)[C@H]([C@H](OC(=O)c3ccccc3)[C@]3(O)C[C@H](OC(=O)[C@H](O)[C@@H](NC(=O)c4ccccc4)c4ccccc4)C(C)=C1C3(C)C)[C@]1(OC(C)=O)CO[C@@H]1C[C@@H]2O" ), measured Cmax is 9760 ng/mL

Attribution: paper PMC9739180
